assay: A549 cell cytotoxicity, dose response, cytotoxicity control, luminescence, dry powder, set 12 (AID 743472); details: A549 viability, CellTiter-Glo ATP luminescence, 72 h; at 26 µM (top of the series)
Assign activity change, negative = cytotoxicity to each entry below.
Kindly provide the numeric value in % only, without the unit symbol.

*Q* Please look up its activity change, negative = cytotoxicity: N#CC1=C(N)Oc2cc(N)ccc2C12C(=O)Nc1ccc(Br)cc12 (stereo not given)
*A* -0.931

*Q* Please look up its activity change, negative = cytotoxicity: Cc1ccc([N+](=O)[O-])cc1S(=O)(=O)N(C)C
*A* -2.86

*Q* Please look up its activity change, negative = cytotoxicity: O=C(Nc1c(Cl)cncc1Cl)c1ccc(OC(F)F)c(OCC2CC2)c1
*A* 2.06

*Q* Please look up its activity change, negative = cytotoxicity: N#CC1=C(N)Oc2cc(N)ccc2C1c1ccc(Cl)cc1 (stereo not given)
*A* -4.23

*Q* Please look up its activity change, negative = cytotoxicity: COc1ccc(CNc2nc(N3CCC[C@H]3CO)ncc2C(=O)NCc2ncccn2)cc1Cl
*A* -5.08

*Q* Please look up its activity change, negative = cytotoxicity: CC1(C)CC(c2nc(-c3ccc4ccc(-c5ccccc5)nc4c3)c3c(N)nccn23)C1
*A* -21.6

*Q* Please look up its activity change, negative = cytotoxicity: Cc1ccc(C2C(C#N)=C(N)Oc3cc(N)ccc32)cc1 (stereo not given)
*A* 2.98

*Q* Please look up its activity change, negative = cytotoxicity: COc1ccccc1C1C(C#N)=C(N)Oc2cc(N)ccc21 (stereo not given)
*A* 3.41

*Q* Please look up its activity change, negative = cytotoxicity: C[C@]1(c2nc3c(C(N)=O)cccc3[nH]2)CCCN1
*A* 8.64

*Q* Please look up its activity change, negative = cytotoxicity: CN1c2ccc(-c3ccc(C#N)cc3)cc2[C@H]2[C@H](CCN2S(=O)(=O)c2ccc(F)cc2)[C@H]1CO
*A* 10.6
